viability, T/C values by entry
Tested on: 993429-296-R-J1-PDC complex spheroid growth, percent test/control;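 note: spheroids exposed to compounds for seven days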
Experiment: Anticancer human tumor 993429-296-R-J1-PDC patient-derived uterine sarcoma cell line growth inhibition [Asc]
Settings: second compound 3.16 µM; first compound 0.0316 µM; hits give low values

COMPOUND	viability, T/C / %
Cn1ncnc1[C@H]1c2n[nH]c(=O)c3cc(F)cc(c23)N[C@@H]1c1ccc(F)cc1 + Cc1c(S(C)(=O)=O)c(-c2cc(F)cc(N3CCN(c4ccc(NS(=O)(=O)c5ccc(NC(CCN6CCC(C(=O)OCCCP(=O)(O)O)CC6)CSc6ccccc6)c(S(=O)(=O)C(F)(F)F)c5)cc4)CC3)c2)c(-c2ccc(Cl)cc2)n1C(C)C	9.8
O=C(c1cc(Cc2n[nH]c(=O)c3ccccc23)ccc1F)N1CCN(C(=O)C2CC2)CC1 + Cc1c(S(C)(=O)=O)c(-c2cc(F)cc(N3CCN(c4ccc(NS(=O)(=O)c5ccc(NC(CCN6CCC(C(=O)OCCCP(=O)(O)O)CC6)CSc6ccccc6)c(S(=O)(=O)C(F)(F)F)c5)cc4)CC3)c2)c(-c2ccc(Cl)cc2)n1C(C)C	42
NC1CCC(NC2CC2c2ccccc2)CC1 (stereo not drawn) + Cc1c(S(C)(=O)=O)c(-c2cc(F)cc(N3CCN(c4ccc(NS(=O)(=O)c5ccc(NC(CCN6CCC(C(=O)OCCCP(=O)(O)O)CC6)CSc6ccccc6)c(S(=O)(=O)C(F)(F)F)c5)cc4)CC3)c2)c(-c2ccc(Cl)cc2)n1C(C)C	30.5
